Recorded microsomal CLint values for a group of compounds are listed next.
# test: in vitro
# Assay type: in vitro ADME
# run conditions: pH 7.4; mouse microsomes; read-out: Mo micrsomal Clint
Please give a number only; it is taken to be in µL/min/mg.

Known results for compounds:
{"columns": ["compound", "measurement kind", "result number"],
 "data": [
  ["COc1ncnc(Cn2cc(C(=O)NCCF)c3ncccc32)c1C [Compound 3]", "microsomal CLint", 104],
  ["COc1ncnc(Cn2cc(C(=O)NCC3CC3)c3ncccc32)c1C [Compound 4]", "microsomal CLint", 180],
  ["COc1ncnc(Cn2cc(C(=O)NCCO)c3ncc(C)cc32)c1C [Compound 17]", "microsomal CLint", 25]
]}

# compound COc1ncnc(Cn2cc(C(=O)NCCF)c3ncc(C)cc32)c1C [Compound 8] ; its microsomal CLint = 108

----------
# test: physchem
# Format: physicochemical
# run conditions: 25 °C, pH 7.4, aqueous buffer, thermodynamic from solid
measurement kind: solubility (µM)
Please give a number only; it is taken to be in µM.

# molecule COc1ncnc(Cn2cc(C(=O)NCCF)c3ncc(C)cc32)c1C [Compound 8] ; its solubility = 4

----------
# test: in vivo
# run conditions: Wistar, rat, in vivo, iv, 2 mg/kg
measurement kind: clearance (mL/min/kg)
Please give a number only; it is taken to be in mL/min/kg.

# molecule COc1ncnc(Cn2cc(C(=O)NCCO)c3ncc(C)cc32)c1C [Compound 17] ; its clearance = 27.4

----------
# test: in vivo
# run conditions: Wistar, rat, in vivo, po
measurement kind: bioavailability (%)
Please give a number only; it is taken to be in %.

# compound "COc1ncnc(Cn2cc(C(=O)NCCO)c3ncc(C)cc32)c1C" ; its bioavailability = 92

----------
# test: in vivo
# run conditions: BALB/c, mouse, po, 30 mg/kg
measurement kind: Tmax (h)
Please give a number only; it is taken to be in h.

# compound COc1ncnc(Cn2cc(C(=O)NCCF)c3ncc(C)cc32)c1C [Compound 8] ; its Tmax = 2

----------
# test: in vivo
# run conditions: male, Wistar, rat, po, 100 mg/kg
measurement kind: Cmax (µM)
Please give a number only; it is taken to be in µM.

Known results for compounds:
{"columns": ["sample smiles", "measurement kind", "result number"],
 "data": [
  ["COc1ncnc(Cn2cc(C(=O)NCC(F)F)c3ncc(C)cc32)c1C", "Cmax", 3.4],
  ["COc1ncnc(Cn2cc(C(=O)NCCO)c3ncc(C)cc32)c1C", "Cmax", 46.1],
  ["Cc1cnc2c(C(=O)NCCO)cn(Cc3ncnc(N(C)C)c3C)c2c1", "Cmax", 31.5]
]}

# evaluate next
# compound "COc1ncnc(Cn2cc(C(=O)NCCF)c3ncc(C)cc32)c1C" ; its Cmax = 11.9

----------
Recorded AUC(0-inf) values for a group of compounds are listed next.
# test: in vivo
# run conditions: male, Wistar, rat, po, 100 mg/kg
Please give a number only; it is taken to be in µM·h.

{"columns": ["sample smiles", "measurement kind", "result number"],
 "data": [
  ["Cc1cnc2c(C(=O)NCCO)cn(Cc3ncnc(N(C)C)c3C)c2c1", "AUC(0-inf)", 166]
]}

# compound "COc1ncnc(Cn2cc(C(=O)NCC(F)F)c3ncc(C)cc32)c1C" ; its AUC(0-inf) = 23.3

# compound "COc1ncnc(Cn2cc(C(=O)NCCF)c3ncc(C)cc32)c1C" ; its AUC(0-inf) = 98.4

# compound "COc1ncnc(Cn2cc(C(=O)NCCO)c3ncc(C)cc32)c1C" ; its AUC(0-inf) = 986

----------
# test: in vivo
# run conditions: Wistar, rat, in vivo, po, 20 mg/kg
measurement kind: half-life (h)
Please give a number only; it is taken to be in h.

# compound COc1ncnc(Cn2cc(C(=O)NCCO)c3ncc(C)cc32)c1C [Compound 17] ; its half-life = 2.74

----------
Recorded fraction unbound at 18 h, 20 μM values for a group of compounds are listed next.
# test: in vitro
# Assay type: in vitro ADME
# run conditions: human, plasma

{"columns": ["compound", "fraction unbound at 18 h, 20 μM"],
 "data": [
  ["COc1ncnc(Cn2cc(C(=O)NCCF)c3ncc(C)cc32)c1C [Compound 8]", "0.05 to 0.22"]
]}

# compound COc1ncnc(Cn2cc(C(=O)NCCF)c3ncccc32)c1C [Compound 3] ; its fraction unbound at 18 h, 20 μM = 0.05 to 0.22

----------
# test: in vivo
# run conditions: Wistar, rat, in vivo, po, 20 mg/kg
measurement kind: AUC(0-inf) (µM·h)
Please give a number only; it is taken to be in µM·h.

# molecule "COc1ncnc(Cn2cc(C(=O)NCCO)c3ncc(C)cc32)c1C" ; its AUC(0-inf) = 59.8

----------
# test: in vivo
# run conditions: Wistar, rat, in vivo, po, 30 mg/kg
Recorded Cmax values for a group of compounds are listed next.
Please give a number only; it is taken to be in µM.

Known results for compounds:
{"columns": ["sample smiles", "result number"],
 "data": [
  ["COc1ncnc(Cn2cc(C(=O)NCCF)c3ncc(C)cc32)c1C", 3.69],
  ["COc1ncnc(Cn2cc(C(=O)NCCF)c3ncccc32)c1C", 15]
]}

# evaluate next
# compound "COc1ncnc(Cn2cc(C(=O)NCC3CC3)c3ncccc32)c1C" ; its Cmax = 2.35

----------
# test: in vivo
# run conditions: BALB/c, mouse, po, 50 mg/kg
measurement kind: Tmax (h)
Please give a number only; it is taken to be in h.

{"columns": ["compound", "value units", "Tmax"],
 "data": [
  ["COc1ncnc(Cn2cc(C(=O)NCCF)c3ncccc32)c1C [Compound 3]", "h", 4.33]
]}

# evaluate next
# compound COc1ncnc(Cn2cc(C(=O)NCC3CC3)c3ncccc32)c1C [Compound 4] ; its Tmax = 4.5

----------
# test: in vivo
# run conditions: Wistar, rat, in vivo, iv, 0.5 mg/kg
measurement kind: half-life
Write the numeric value and follow it with the unit.

# compound "COc1ncnc(Cn2cc(C(=O)NCCF)c3ncccc32)c1C" ; its half-life = 2.22 h

----------
# test: in vivo
# run conditions: BALB/c, mouse, po, 30 mg/kg
measurement kind: AUC(0-inf) (µM·h)
Please give a number only; it is taken to be in µM·h.

{"columns": ["sample smiles", "measurement kind", "result number"],
 "data": [
  ["COc1ncnc(Cn2cc(C(=O)NCC3CC3)c3ncccc32)c1C", "AUC(0-inf)", 227]
]}

# evaluate next
# compound "COc1ncnc(Cn2cc(C(=O)NCCF)c3ncccc32)c1C" ; its AUC(0-inf) = 252

----------
# test: in vivo
# run conditions: BALB/c, mouse, po, 30 mg/kg
measurement kind: Tmax (h)
Please give a number only; it is taken to be in h.

# molecule "COc1ncnc(Cn2cc(C(=O)NCC3CC3)c3ncccc32)c1C" ; its Tmax = 5.67

----------
# test: in vivo
# run conditions: Wistar, rat, in vivo, po, 20 mg/kg
measurement kind: Tmax
Write the numeric value and follow it with the unit.

# molecule COc1ncnc(Cn2cc(C(=O)NCCO)c3ncc(C)cc32)c1C [Compound 17] ; its Tmax = 30 min

----------
# test: in vivo
# run conditions: male, Wistar, rat, po, 100 mg/kg
measurement kind: Tmax
Write the numeric value and follow it with the unit.

Known results for compounds:
{"columns": ["compound", "result"],
 "data": [
  ["COc1ncnc(Cn2cc(C(=O)NCCF)c3ncc(C)cc32)c1C [Compound 8]", "1.5 h"],
  ["COc1ncnc(Cn2cc(C(=O)NCCO)c3ncc(C)cc32)c1C [Compound 17]", "5.3 h"],
  ["Cc1cnc2c(C(=O)NCCO)cn(Cc3ncnc(N(C)C)c3C)c2c1 [Compound 34]", "2 h"]
]}

# evaluate next
# compound COc1ncnc(Cn2cc(C(=O)NCC(F)F)c3ncc(C)cc32)c1C [Compound 30] ; its Tmax = 3.3 h

----------
# test: in vivo
# run conditions: BALB/c, mouse, po, 100 mg/kg, Cmax, Plasma
measurement kind: Cmax (µM)
Please give a number only; it is taken to be in µM.

# molecule COc1ncnc(Cn2cc(C(=O)NCCF)c3ncccc32)c1C [Compound 3] ; its Cmax = 63.8

----------
# test: in vivo
# run conditions: BALB/c, mouse, po, 100 mg/kg, AUC0-∞, fPlasma
measurement kind: AUC(0-inf)

# molecule "COc1ncnc(Cn2cc(C(=O)NCCF)c3ncccc32)c1C" ; its AUC(0-inf) = 43.5 µM·h

----------
# test: in vivo
# run conditions: male, Wistar, rat, po, 100 mg/kg
measurement kind: half-life
Write the numeric value and follow it with the unit.

{"columns": ["compound", "result"],
 "data": [
  ["COc1ncnc(Cn2cc(C(=O)NCC(F)F)c3ncc(C)cc32)c1C [Compound 30]", "3.3 h"],
  ["COc1ncnc(Cn2cc(C(=O)NCCF)c3ncc(C)cc32)c1C [Compound 8]", "7.2 h"]
]}

# compound COc1ncnc(Cn2cc(C(=O)NCCO)c3ncc(C)cc32)c1C [Compound 17] ; its half-life = 3.8 h

# compound Cc1cnc2c(C(=O)NCCO)cn(Cc3ncnc(N(C)C)c3C)c2c1 [Compound 34] ; its half-life = 4.6 h
